biological target: UniProtKB Q9NYY3; test: PLK TR-FRET peptide assay, PLK2; type: biochemical; conditions: PLK TR-FRET peptide assay, GST-PLK2, 60 min reaction; read-out: Plk2 IC50
Sequence (Q9NYY3 whole entry): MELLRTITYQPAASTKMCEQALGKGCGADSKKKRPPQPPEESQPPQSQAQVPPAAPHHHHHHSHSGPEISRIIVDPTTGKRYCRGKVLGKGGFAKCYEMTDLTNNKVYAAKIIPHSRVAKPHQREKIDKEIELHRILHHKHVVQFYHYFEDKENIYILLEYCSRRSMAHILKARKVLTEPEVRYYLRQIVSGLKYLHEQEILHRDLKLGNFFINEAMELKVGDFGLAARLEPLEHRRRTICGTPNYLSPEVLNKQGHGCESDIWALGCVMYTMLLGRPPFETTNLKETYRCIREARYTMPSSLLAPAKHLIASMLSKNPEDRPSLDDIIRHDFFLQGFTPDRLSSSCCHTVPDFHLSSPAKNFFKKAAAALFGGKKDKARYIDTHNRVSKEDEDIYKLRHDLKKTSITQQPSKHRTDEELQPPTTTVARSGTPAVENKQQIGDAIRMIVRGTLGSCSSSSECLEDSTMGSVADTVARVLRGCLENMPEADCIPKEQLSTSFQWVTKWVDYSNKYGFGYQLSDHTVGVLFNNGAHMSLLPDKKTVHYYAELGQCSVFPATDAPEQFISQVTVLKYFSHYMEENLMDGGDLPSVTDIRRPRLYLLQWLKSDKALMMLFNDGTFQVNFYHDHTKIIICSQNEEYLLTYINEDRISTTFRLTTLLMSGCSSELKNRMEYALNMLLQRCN
pIC50: −log10 of the molar value.
Measurement type: pIC50

>>> result("CC[C@]12CCCCN1c1nc(-n3ccnc3-c3ccccc3)ncc1N(C)C2=O")
"4.30 to 5.00"
>>> result("CC[C@@H]1C(=O)N(C)c2cnc(-n3ccnc3-c3cccc(F)c3)nc2N1C1CCOC1 (stereo partly shown)")
"> 6.00"
>>> result("CC[C@@H]1C(=O)N(C)c2cnc(-n3ccnc3-c3ccc(F)cc3F)nc2N1CCC(F)(F)F")
"> 6.00"
>>> result("CC[C@@H]1C(=O)N(C)c2cnc(-n3ccnc3-c3cccc(F)c3F)nc2N1C1CCOC1 (stereo partly shown)")
"> 6.00"
>>> result("CN1C(=O)[C@H]2CCCN2c2nc(-n3ccnc3)ncc21")
"4.30 to 5.00"
>>> result("CC[C@@H]1C(=O)N(C)c2cnc(-c3ccncc3NS(C)(=O)=O)nc2N1C1CCCC1")
"> 6.00"
>>> result("CC[C@@H]1C(=O)N(C)c2cnc(-n3ccnc3-c3cc(Cl)cc(Cl)c3)nc2N1C1CCC1")
"> 6.00"
>>> result("CC[C@@H]1C(=O)N(C)c2cnc(-c3ccncc3NS(C)(=O)=O)nc2N1C(C)C")
"5.00 to 6.00"
>>> result("CC[C@@H]1C(=O)N(C)c2cnc(-n3ccnc3-c3ccc(F)cc3F)nc2N1C1CCOC1 (stereo partly shown)")
"> 6.00"
>>> result("CC[C@@H]1C(=O)N(C)c2cnc(-n3ccnc3-c3cccc(Cl)c3)nc2N1C1CCOC1 (stereo partly shown)")
"> 6.00"
>>> result("CC[C@@H]1C(=O)N(C)c2cnc(N3CCN(c4cnccn4)CC3)nc2N1C1CCCC1")
"5.00 to 6.00"
>>> result("CC[C@@H]1C(=O)N(C)c2cnc(-n3ccnc3-c3ccc(F)cc3)nc2N1CC1CC1")
"> 6.00"
>>> result("CC[C@@H]1C(=O)N(C)c2cnc(-n3cnc(-c4nccs4)c3)nc2N1C1CCCC1")
"> 6.00"
>>> result("CC[C@@H]1CC[C@@]2(CC)C(=O)N(C)c3cnc(-c4cn[nH]c4-c4cscn4)nc3N12")
"> 6.00"
>>> result("CCC12CCCCN1c1nc(-n3ccnc3-c3cc(F)cc(F)c3)ncc1N(C)C2=O (racemic)")
"> 6.00"
>>> result("CN1C(=O)[C@H](CC(F)(F)F)N(CCC(F)(F)F)c2nc(-n3ccnc3)ncc21")
"4.30 to 5.00"

###

Listing of entries alongside the reported pIC50.
target: PLK1 (Homo sapiens, UniProt P53350); test: PLK TR-FRET peptide assay, PLK1; format: biochemical; conditions: GST-PLK1, 60 min reaction
Sequence (P53350 whole entry): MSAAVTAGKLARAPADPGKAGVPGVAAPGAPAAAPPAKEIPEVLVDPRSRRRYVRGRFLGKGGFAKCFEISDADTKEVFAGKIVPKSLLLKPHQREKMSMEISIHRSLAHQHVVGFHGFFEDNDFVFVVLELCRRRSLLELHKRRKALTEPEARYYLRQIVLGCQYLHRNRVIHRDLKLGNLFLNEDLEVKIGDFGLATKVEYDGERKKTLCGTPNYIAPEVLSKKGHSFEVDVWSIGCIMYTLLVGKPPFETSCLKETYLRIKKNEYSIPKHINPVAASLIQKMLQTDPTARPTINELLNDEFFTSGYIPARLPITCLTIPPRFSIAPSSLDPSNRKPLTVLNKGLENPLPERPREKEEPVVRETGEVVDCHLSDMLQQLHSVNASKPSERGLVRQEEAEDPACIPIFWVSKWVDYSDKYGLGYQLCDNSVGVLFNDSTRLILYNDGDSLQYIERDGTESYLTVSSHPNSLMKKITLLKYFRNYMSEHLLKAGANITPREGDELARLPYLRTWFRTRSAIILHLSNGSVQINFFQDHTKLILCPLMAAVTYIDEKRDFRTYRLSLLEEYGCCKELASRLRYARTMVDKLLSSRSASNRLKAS
pIC50: −log10 of the molar value.
Measurement type: pIC50

>>> result("CC[C@@H]1C(=O)N(C)c2cnc(-n3ccnc3-c3cccc(C#N)c3)nc2N1C(C)C [Example 228]")
"5.00 to 6.00"
>>> result("CC[C@@H]1C(=O)N(C)c2cnc(-n3ccnc3-c3ccc(F)cc3)nc2N1C(C)C [Example 212]")
"5.00 to 6.00"
>>> result("[2H]C([2H])([2H])N1C(=O)[C@@H](C([2H])([2H])C([2H])([2H])[2H])N(C([2H])(C([2H])([2H])[2H])C([2H])([2H])[2H])c2nc(-n3ccnc3-c3cccc(F)c3)ncc21 [Example 202]")
"> 6.00"
